target: T1, human EGFRvIII expressed on cells (human, UniProt P00533 298-1210); test: flow cytometry, F98-npEGFRvIII cells
T1 construct: the F98-npEGFRvIII line was obtained from ATCC and its construct is not described; also called F98-npEGFRvIII; F98-EGFRvIII
Kindly state % positive for each of the entries shown.
Form entry: value (%) — number only.

Please report the recorded % positive for 11B11 (antibody, V domains shown, Hybridoma supernatant (AlivaMab mouse); captured/detected via mouse Fc) VH: QVTLKESGPVLVKPTETLTLTCTVSGFSLSNAKMGVSWIRQPPGKALEWLAHIFSTDEKSIRRSLRSRLTMSKDTSKSQVVLTMTNMDPVDTATYYCVRDSSNYEGYFDYWGQGTLVTVSS VL: EVLMTQSPATLSVSPGERATLSCRASQSVSTNFAWYQQRPGQAPRLLLFGASTRATGIPGRFSGSGSGTENILTISSLQSEDFAIYFCQQYKDWPFTFGPGSKVEIK .
98.2

Please report the recorded % positive for 20B9 (antibody, V domains shown, Hybridoma supernatant (AlivaMab mouse); captured/detected via mouse Fc) VH: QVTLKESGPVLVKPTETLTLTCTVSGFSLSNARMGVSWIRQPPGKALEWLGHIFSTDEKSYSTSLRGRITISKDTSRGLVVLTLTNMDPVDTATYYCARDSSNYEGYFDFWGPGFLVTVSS VL: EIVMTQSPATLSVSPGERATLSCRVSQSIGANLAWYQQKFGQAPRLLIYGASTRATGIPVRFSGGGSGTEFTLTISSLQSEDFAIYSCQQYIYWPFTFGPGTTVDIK .
98.3

Please report the recorded % positive for 12B2 (antibody, V domains shown, Hybridoma supernatant (AlivaMab mouse); captured/detected via mouse Fc) VH: QVTLKESGPVLVKPTETLTLTCTVSGFSLSNPRMGVSWIRQPPGKALEWLGHIFSSDEKSYRLSLRSRLSISKDTSKSQVVLTMTNMDPVDTATYYCVRDSSNYGGYFDYWGQGTLVTVSS VL: EVVMTQSPATLSVSPGERATLSCRASQSVINNLAWYQQKPGQAPRLLIYGTSTRATDIPARFSGSGSGTEFTLTISSLQSEDFAVYYCQDYNNWPFTFGPGTKVDIK .
97.9

Please report the recorded % positive for 32A10 (antibody, V domains shown, Hybridoma supernatant (AlivaMab mouse); captured/detected via mouse Fc) VH: QVTLKESGPVLVKPTETLTLTCTVSGFSLSNARMGVSWIRQPPGKALEWLAHIFSTDEKSIRRSLRSRLTLSKDTSKSQVVLTMTNMDPVDTATYFCARDSSNYEGYFDYWGQGTLVTVSS VL: EVVMTQSPATLSVSPGERVTLSCRASQSVSSNFAWYQQRPGQAPRLLLYGATTRATGLPGRFSGSGSGTENILTISSLQSEDFAIYFCQQYKDWPFTFGPGSKVDIK .
98.3
